Target: GST-VEGFR2 (Homo sapiens)
Construct: GST-VEGFR2, baculovirus expressed recombinant constructs of the intracellular domains; made in house
Sequence (P35968 786-1356 limits assumed): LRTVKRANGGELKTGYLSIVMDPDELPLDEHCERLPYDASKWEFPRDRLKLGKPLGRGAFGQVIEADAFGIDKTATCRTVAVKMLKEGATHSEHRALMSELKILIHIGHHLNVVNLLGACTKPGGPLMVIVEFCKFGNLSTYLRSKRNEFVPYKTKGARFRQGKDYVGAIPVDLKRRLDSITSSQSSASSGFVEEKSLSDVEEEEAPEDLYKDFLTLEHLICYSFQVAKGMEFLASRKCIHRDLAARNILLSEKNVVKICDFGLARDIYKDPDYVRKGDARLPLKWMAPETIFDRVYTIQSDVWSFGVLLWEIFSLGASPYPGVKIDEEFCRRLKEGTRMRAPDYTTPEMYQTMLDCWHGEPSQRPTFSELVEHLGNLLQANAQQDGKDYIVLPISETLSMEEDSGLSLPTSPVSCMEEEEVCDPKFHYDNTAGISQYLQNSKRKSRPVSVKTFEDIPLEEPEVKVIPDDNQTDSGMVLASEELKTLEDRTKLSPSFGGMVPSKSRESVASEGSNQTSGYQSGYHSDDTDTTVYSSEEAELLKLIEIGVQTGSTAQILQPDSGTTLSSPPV
Assay: VEGF-R2 Enzyme Assay (VEGF-E2), LANCE method
Type: biochemical
Details: read-out: VEGFR2 PIC50 VEGFR-E2 assay
pIC50: −log10 of the molar value.
Task for the reader: assign each of the following compounds its reported pIC50.

Illustrative cases are given below, each with its answer.
# input compound: Cn1nc(-c2ccc(NS(=O)(=O)c3cccc(Cl)c3Cl)cc2)c2cnc(NCCCN3CCCC3=O)nc21 ; wanted: its pIC50
5.00 to 6.00

Then what about the compound Cn1nc(-c2ccc(NS(=O)(=O)c3cccc(C(F)(F)F)c3)c(C(F)(F)F)c2)c2cnc(NCCN3CCOCC3)nc21 ?
< 5.00

Need pIC50 for each of these compounds.
1. Cn1nc(-c2ccc(NC(=O)Nc3cc(C(C)(C)C)on3)c(F)c2)c2cnc(NCCN3CCOCC3)nc21
2. Cn1nc(-c2ccc(NC(=O)Nc3cc(C(F)(F)F)ccc3F)c(F)c2)c2cnc(NCCCn3ccnc3)nc21
3. Cn1nc(-c2ccc(NS(=O)(=O)c3cccc(Cl)c3Cl)cc2)c2cnc(NCCCO)nc21
4. Cn1nc(-c2ccc(NS(=O)(=O)c3cccc(Cl)c3Cl)cc2)c2cnc(NCCCCNS(C)(=O)=O)nc21
5. Cn1nc(-c2ccc(NC(=O)Nc3cc(C(F)(F)F)ccc3F)cc2)c2cnc(NCCCNS(C)(=O)=O)nc21

["5.00 to 6.00", "5.00 to 6.00", "5.00 to 6.00", "< 5.00", "5.00 to 6.00"]

# input compound: Cn1nc(-c2ccc(NC(=O)Nc3cc(C(F)(F)F)ccc3F)cc2)c2cnc(NCCN3CCOCC3)nc21 ; wanted: its pIC50
5.00 to 6.00

----------
Task for the reader: assign each of the following molecules its reported pIC50.
Target: GST-TIE2 (intracellular domains of human TIE2) (Homo sapiens)
Construct: made in house
Sequence (Q02763 762-1104): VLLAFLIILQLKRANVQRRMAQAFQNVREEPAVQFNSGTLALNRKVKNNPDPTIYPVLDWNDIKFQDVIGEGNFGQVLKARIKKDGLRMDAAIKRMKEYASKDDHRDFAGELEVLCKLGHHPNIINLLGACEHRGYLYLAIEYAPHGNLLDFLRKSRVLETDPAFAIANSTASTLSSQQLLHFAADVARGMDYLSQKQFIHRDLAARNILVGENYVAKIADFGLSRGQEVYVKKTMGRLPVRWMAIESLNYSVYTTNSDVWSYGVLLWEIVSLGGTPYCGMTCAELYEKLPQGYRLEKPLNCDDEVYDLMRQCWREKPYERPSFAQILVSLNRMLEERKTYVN
Test: TIE-2 Enzyme Assay (TIE2-E2), LANCE method
Format: biochemical
Details: read-out: TIE2 PIC50 TIE2-E2 assay
pIC50: −log10 of the molar value.

Illustrative cases are given below, each with its answer.
# input molecule: CN1CCN(CCCNc2ncc3c(-c4ccc(NC(=O)Nc5cc(C(C)(C)C)on5)c(F)c4)nn(C)c3n2)CC1 ; wanted: its pIC50
≥ 7.40

Then what about the molecule Cn1nc(-c2ccc(NC(=O)Nc3ccc4ccccc4c3)c(F)c2)c2cnc(NCCN3CCOCC3)nc21 ?
6.00 to 7.00

Then what about the molecule Cn1nc(-c2ccc(NC(=O)Nc3cc(C(F)(F)F)ccc3F)cc2)c2cnc(NCCCCCO)nc21 ?
7.00 to 7.40

Then what about the molecule CN1CCN(CCCNc2ncc3c(-c4ccc(NC(=O)Nc5cc(C(F)(F)F)ccc5F)c(F)c4)nn(C)c3n2)CC1 ?
≥ 7.40

Then what about the molecule Cn1nc(-c2ccc(NC(=O)Nc3cc(C(F)(F)F)ccc3F)cc2)c2cnc(NCc3ccccc3)nc21 ?
5.00 to 6.00

Need pIC50 for each of these molecules.
1. CN1CCCC1CCNc1ncc2c(-c3ccc(NC(=O)Nc4cc(C(C)(C)C)on4)c(F)c3)nn(C)c2n1 (stereo not drawn)
2. CN(C)CCCNc1ncc2c(-c3ccc(NS(=O)(=O)c4cccc(Cl)c4Cl)cc3)nn(C)c2n1
3. Cn1nc(-c2ccc(NS(=O)(=O)c3cccc(Cl)c3Cl)cc2)c2cnc(NCCCCCO)nc21
4. CC1CCCCN1CCCNc1ncc2c(-c3ccc(NC(=O)Nc4cc(C(F)(F)F)ccc4F)c(F)c3)nn(C)c2n1 (stereo not drawn)
5. Cn1nc(-c2ccc(NC(=O)Nc3cc(C(F)(F)F)ccc3F)cc2)c2cnc(NCCCCN3CCCC3)nc21
6. Cn1nc(-c2ccc(NS(=O)(=O)c3cccc(Cl)c3Cl)cc2)c2cnc(NCCCN)nc21
7. Cn1nc(-c2ccc(NC(=O)Nc3cccc(C(F)(F)F)c3)cc2)c2cnc(NCCN3CCOCC3)nc21

1: ≥ 7.40; 2: < 5.00; 3: 5.00 to 6.00; 4: ≥ 7.40; 5: ≥ 7.40; 6: 5.00 to 6.00; 7: ≥ 7.40

Need pIC50 for each of these molecules.
1. CCNc1ncc2c(-c3ccc(NC(=O)Nc4ccc(C(F)(F)F)cc4F)cc3)nn(C)c2n1
2. Cn1nc(-c2ccc(NC(=O)Nc3cc(C(F)(F)F)ccc3F)c(F)c2)c2cnc(NCCCN3CCOCC3)nc21

5.00 to 6.00
≥ 7.40

# input molecule: Cn1nc(-c2ccc(NC(=O)Nc3cc(C(F)(F)F)ccc3F)cc2)c2cnc(NCCCO)nc21 ; wanted: its pIC50
≥ 7.40

----------
Molecular target: GST-VEGFR2 (Homo sapiens)
Construct: GST-VEGFR2, baculovirus expressed recombinant constructs of the intracellular domains
Experiment: VEGF-R2 Enzyme Assay (VEGF-E2), LANCE method
Settings: read-out: VEGFR2 PIC50 VEGFR-E2 assay
pIC50: −log10 of the molar value.
Task for the reader: assign each of the following molecules its reported pIC50.

# input molecule: Cn1nc(-c2ccc(NC(=O)Nc3cc(C(F)(F)F)ccc3F)cc2)c2cnc(NCCCCNS(C)(=O)=O)nc21 [Example 97] ; wanted: its pIC50
< 5.00

Then what about the molecule Cn1nc(-c2ccc(NC(=O)Nc3cc(C(F)(F)F)ccc3F)cc2)c2cnc(NCCCCN3CCCC3)nc21 [Example 91] ?
5.00 to 6.00

Then what about the molecule Cn1nc(-c2ccc(NC(=O)Nc3cc(C(F)(F)F)ccc3F)cc2)c2cnc(NCCN3CCNC3=O)nc21 [Example 90] ?
5.00 to 6.00

Then what about the molecule Cc1cc(-c2nn(C)c3nc(NCCN4CCOCC4)ncc23)ccc1NC(=O)Nc1ccc2ccccc2c1 [Example 46] ?
< 5.00

Then what about the molecule Cn1nc(-c2ccc(NC(=O)Nc3cc(C(F)(F)F)ccc3F)cc2)c2cnc(NCCCN3CCOCC3)nc21 [Example 84] ?
5.00 to 6.00

Need pIC50 for each of these molecules.
1. Cn1nc(-c2ccc(NC(=O)Nc3cc(C(F)(F)F)ccc3F)cc2)c2cnc(NCCCO)nc21 [Example 92]
2. CC(C)n1nc(-c2ccc(NS(=O)(=O)c3cccc(Cl)c3Cl)cc2)c2cnc(NCCN3CCOCC3)nc21 [Example 77]

5.00 to 6.00
5.00 to 6.00

----------
Task for the reader: assign each of the following compounds its reported inhibition at 10 µM.
Biological target: Recombinant GST-Tie2 (Homo sapiens)
Sequence (Q02763 23-1124): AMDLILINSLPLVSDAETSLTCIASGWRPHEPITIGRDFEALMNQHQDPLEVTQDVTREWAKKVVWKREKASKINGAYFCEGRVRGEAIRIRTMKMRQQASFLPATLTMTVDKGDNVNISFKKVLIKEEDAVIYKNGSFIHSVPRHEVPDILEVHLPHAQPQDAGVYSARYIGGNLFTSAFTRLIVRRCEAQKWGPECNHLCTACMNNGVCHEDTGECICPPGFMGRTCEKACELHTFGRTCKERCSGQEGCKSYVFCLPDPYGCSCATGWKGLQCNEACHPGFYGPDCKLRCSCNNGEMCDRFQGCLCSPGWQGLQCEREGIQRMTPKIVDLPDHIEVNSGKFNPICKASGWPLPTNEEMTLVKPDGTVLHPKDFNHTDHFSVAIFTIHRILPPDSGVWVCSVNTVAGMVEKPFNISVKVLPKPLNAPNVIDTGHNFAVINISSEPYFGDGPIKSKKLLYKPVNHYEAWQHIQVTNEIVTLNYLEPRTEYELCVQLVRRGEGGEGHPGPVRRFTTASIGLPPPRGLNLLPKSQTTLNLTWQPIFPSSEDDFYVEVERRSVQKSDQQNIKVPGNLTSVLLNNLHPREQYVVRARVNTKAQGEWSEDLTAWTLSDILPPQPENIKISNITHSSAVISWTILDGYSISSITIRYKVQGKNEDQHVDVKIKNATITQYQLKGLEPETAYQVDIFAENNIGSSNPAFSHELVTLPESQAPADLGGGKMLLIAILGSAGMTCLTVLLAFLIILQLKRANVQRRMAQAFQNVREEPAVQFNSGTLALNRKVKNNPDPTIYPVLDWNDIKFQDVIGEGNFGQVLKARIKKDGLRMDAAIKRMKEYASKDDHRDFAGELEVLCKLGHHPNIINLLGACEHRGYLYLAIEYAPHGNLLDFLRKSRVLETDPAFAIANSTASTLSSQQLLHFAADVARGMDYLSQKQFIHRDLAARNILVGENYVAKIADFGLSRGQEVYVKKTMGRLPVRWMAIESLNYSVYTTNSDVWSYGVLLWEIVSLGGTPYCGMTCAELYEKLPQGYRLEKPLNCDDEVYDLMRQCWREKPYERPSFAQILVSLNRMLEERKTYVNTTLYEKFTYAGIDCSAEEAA
Assay: Tie2 Fluorescence Polarization Kinase Activity Assay (TIE2-FP)
Assay type: biochemical
Don't forget the unit after the number, please.

# input compound: CC(=O)c1cccc(NC(=O)Nc2ccc(-c3nn(C)c4nc(NCCN5CCOCC5)ncc34)cc2C)c1 ; wanted: its inhibition at 10 µM
25%

Then what about the compound Cc1cc(-c2nn(C)c3nc(NCCN4CCOCC4)ncc23)ccc1NS(=O)(=O)c1cccc(C(F)(F)F)c1 ?
13%

Then what about the compound Cn1nc(-c2ccc(NS(=O)(=O)c3cccc(C(F)(F)F)c3)c(C(F)(F)F)c2)c2cnc(NCCN3CCOCC3)nc21 ?
0%

Then what about the compound Cc1cc(-c2nn(C)c3nc(NCCN4CCOCC4)ncc23)ccc1NS(=O)(=O)c1cccc(Cl)c1Cl ?
41%

Need inhibition at 10 µM for each of these compounds.
1. Cc1cc(-c2nn(C)c3nc(NCCN4CCOCC4)ncc23)ccc1NS(=O)(=O)c1ccccc1F
2. Cc1cc(-c2nn(C)c3nc(NCCN4CCOCC4)ncc23)ccc1NS(=O)(=O)c1ccc(Cl)s1
3. Cn1nc(-c2ccc(NS(=O)(=O)c3cccc(Cl)c3Cl)cc2)c2cnc(NCCN3CCOCC3)nc21

1: 44%; 2: 37%; 3: 49%

----------
Task for the reader: assign each of the following compounds its reported IC50.
Target: GST-TIE2 (intracellular domains of human TIE2) (Homo sapiens)
Experiment: TIE-2 Enzyme Assay (TIE2-E2), LANCE method
Conditions: read-out: TIE2 PIC50 TIE2-E2 assay

Illustrative cases are given below, each with its answer.
Form field - read-out: IC50; system: GST-TIE2 (intracellular domains of human TIE2) (Homo sapiens); submitted item: Cn1nc(-c2ccc(NC(=O)Nc3cc(C(F)(F)F)ccc3F)cc2)c2cnc(NCCCN3CCOCC3)nc21
≤ 39.8 nM

Then what about the compound CC(=O)Nc1ncc2c(-c3ccc(NC(=O)Nc4cc(C(F)(F)F)ccc4F)cc3)nn(C)c2n1 ?
100 to 1000 nM

Then what about the compound Cc1cc(-c2nn(C)c3nc(NCCN4CCOCC4)ncc23)ccc1NC(=O)Nc1cc(C(F)(F)F)cc(C(F)(F)F)c1 ?
100 to 1000 nM

Need IC50 for each of these compounds.
1. Cn1nc(-c2ccc(NC(=O)Nc3cc(C(F)(F)F)ccc3F)c(F)c2)c2cnc(NCCCn3ccnc3)nc21
2. Cn1nc(-c2ccc(NC(=O)Nc3cc(C(F)(F)F)ccc3F)cc2)c2cnc(NCCc3ccccc3)nc21

1: ≤ 39.8 nM; 2: 1000 to 10000 nM
